Known normalized RNA/DNA level with ligand (log10) of a selection of variants
B1: library; a variant is named by its letters at N, in order (parent)
chain: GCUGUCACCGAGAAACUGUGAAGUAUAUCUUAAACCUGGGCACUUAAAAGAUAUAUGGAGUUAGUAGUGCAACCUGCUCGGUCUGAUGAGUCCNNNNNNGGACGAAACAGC

Variants of: B1
Experiment: normalized RNA/DNA level with ligand (relative to sTRSVctl = 100) (log10 (% of sTRSVctl)); HEK293T; ligand: cyclic di-GMP (c-di-GMP-II aptamer); ligand concentration (+) RNA-Seq: 1 mM; higher = less ribozyme self-cleavage, higher mRNA level
Conditions: reporter: mCherry (pCS4076), ligand present: yes
result type: normalized RNA/DNA level with ligand (log10)

mutant code: GUAACG
data value: 1.78

mutant code: UACCAG
data value: 1.83

mutant code: GACACC
data value: 1.83

mutant code: AGCCCA
data value: 1.92

mutant code: AUAACA
data value: 1.77

mutant code: AACGGA
data value: 1.53

mutant code: GUGAAA
data value: 1.62

mutant code: GUGAUU
data value: 1.79

mutant code: UAGCAC
data value: 1.83

mutant code: CACUUU
data value: 1.7

mutant code: UCUCGU
data value: 1.85

mutant code: CGAUAC
data value: 1.77

mutant code: CAUAGG
data value: 1.85

mutant code: GCCCUG
data value: 1.86

mutant code: GUGCAU
data value: 1.85

mutant code: UAGGGU
data value: 1.78

mutant code: AUCAAG
data value: 1.76

mutant code: AAGAGG
data value: 1.68

mutant code: AGGCAC
data value: 1.84

mutant code: ACGUCG
data value: 1.81

mutant code: CGGUCC
data value: 1.96

mutant code: GGCCAG
data value: 1.85
